# experimentalSystem: full-length HA from isolate A/Vietnam/1194/2004 (H5N1TV) on PER.C6 cells (influenza A virus A/Vietnam/1194/2004 …, UniProt Q80A26 6-554)
# assayInfo: flow cytometry, transfected PER.C6 cells
Hi, to clarify the labels: yes covers flow cytometry signal at 0.1 µg/ml from 60 upward, no covers anything below 60.

- binder: "CR6344 (antibody, V domains shown) VH: QVQLVQSGAEVKKPGSSVRVSCKASGSIFRNYAMSWVRQAPGQGLEWMGGIIAIFGTPKYAQKFQGRVTITADESTSTVYMELSGLRSEDTAMYYCARIPHYNFGSGSYFDYWGQGTLVTVSS VL: TVLTQPPSVSGAPGQRVTISCTGSSSNIGAGYDVHWYQQLPGTAPKLLIYGNSNRPSGVPDRFSGSKSGTSATLGITGLQTGDEADYYCGTWDSSLSAYVFGTGTKVTVLG"
  assignedLabel: "yes"
- binder: "CR6257 (antibody, V domains shown) VH: QVQLVQSGAEVKKPGSSVKVSCKASGGPFRSYAISWVRQAPGQGPEWMGGIIPIFGTTKYAPKFQGRVTITADDFAGTVYMELSSLRSEDTAMYYCAKHMGYQVRETMDVWGKGTTVTVSS VL: QSALTQPAAVSGSPGQSITISCTGTSSDVGGYNYVSWYQQHPGKAPKLMIYEVSNRPSGVSNRFSGSKSGNTASLTISGLQAEDEADYYCSSYTSSSTYVFGTGTKVTVLG"
  assignedLabel: "yes"
- binder: "CR6262 (antibody, V domains shown) VH: QVQLQQSGAEVKKPGSSVKVSCKVSGVIFSGSAISWVRQAPGQGLEWMGGISPLFGTTNYAQKFQGRVTITADQSTNTTYMEVNSLRYEDTAVYFCARGPKYYSEYMDVWGKGTTVTVSS VL: DIQMTQSPSSLSASVGDRVTITCRASQGISSYLAWYQQKPGKVPTLLIYDASTLRSGVPSRFSGSGSATDFTLTISSLQPEDVATYYCQRYNSAPPITFGQGTRLEIKR"
  assignedLabel: "no"
- binder: "CR6314 (antibody, V domains shown) VH: EVQLVESGAEVKKPGSSVKVSCKASGGPFRSYAISWVRQAPGQGPEWMGGIIPIFGTTKYAPKFQGRVTITADDFAGTVYMELSSLRSEDTAMYYCAKHMGYQVRETMDVWGKGTTVTVSS VL: SYVLTQPPSASGTPGQRVTISCSGSSSNIGSNYVYWYQQLPGTAPKLLIYRDGQRPSGVPDRFSGSKSGTSASLAISGLRSDDEADYYCATWDDNLSGPVFGGGTKLTVLG"
  assignedLabel: "no"

Now look at this one.
Reported flow cytometry signal at 0.1 µg/ml at or above 60? CR6307 (antibody, V domains shown) VH: QVQLVQSGGGLVKPGGSLRLSCAASGFTFSSYSMNWVRQAPGKGLEWVSSISSSSSYIYYVDSVKGRFTISRDNAKNSLYLQMNSLRAEDTAVYYCARGGGSYGAYEGFDYWGQGTLVTVSS VL: EIVLTQSPGTLSLSPGERATLSCRASQRVSSYLAWYQQKPGQAPRLLIYGASTRAAGIPDRFSGSGSGTDFTLTISRLEPEDSAVYYCQQYGRTPLTFGGGTKVEIKR yes
